Quick reference for pIC50 among some molecules
Target: unphosphorylated c-KIT kinase (uKIT, Seq. ID no. 2) (Homo sapiens (Human))
Assay: uKit kinase assay (coupled pyruvate kinase/lactate dehydrogenase)
Conditions: enzymatic assay, ATP 2000 μM
pIC50: −log10 of the molar value.
Readout name: pIC50

>>> experimental_value("COCCN1CCN(C(=O)Nc2ccc(Oc3ccnc(-c4cnn(C)c4)c3)cn2)C1=O [Example 10]")
"6.00 to 7.00"
>>> experimental_value("Cc1cc(NC(=O)N2CCN(C)C2=O)ncc1Oc1ccnc(-c2cnn(C)c2)c1 [Example 85]")
"7.00 to 8.00"
>>> experimental_value("Cc1cc(-c2cc(Oc3ccc(NC(=O)N4CCN(C5CCOCC5)C4=O)nc3)ccn2)ccn1 [Example 51]")
"7.00 to 8.00"
>>> experimental_value("Cn1cc(-c2cc(Oc3cc(F)c(NC(=O)N4CCN(C5CCOCC5)C4=O)cc3F)ccn2)cn1 [Example 91]")
"6.00 to 7.00"
>>> experimental_value("CC(C)N1CCN(C(=O)Nc2ncc(Oc3ccnc(-c4cnn(C)c4)c3)cn2)C1=O [Example 2]")
"7.00 to 8.00"
>>> experimental_value("COC[C@@H](C)N1CCN(C(=O)Nc2ccc(Oc3ccnc(-c4cnn(C)c4)c3)cn2)C1=O [Example 59]")
"7.00 to 8.00"
>>> experimental_value("COC(C)(C)CCN1CCN(C(=O)Nc2ccc(Oc3ccnc(-c4cnn(C)c4)c3)cn2)C1=O [Example 24]")
"7.00 to 8.00"
>>> experimental_value("Cc1nc(NC(=O)N2CCN(C3CCCCC3)C2=O)ccc1Oc1ccnc(-c2cnn(C)c2)c1 [Example 22]")
"7.00 to 8.00"
>>> experimental_value("Cc1nc(NC(=O)N2CCN(CC(F)(F)F)C2=O)ccc1Oc1ccnc(-c2cnn(C)c2)c1 [Example 43]")
"6.00 to 7.00"
>>> experimental_value("Cc1nc(NC(=O)N2CCN(C3CCOC3)C2=O)ccc1Oc1ccnc(-c2cnn(C)c2)c1 (stereo in doubt) [Example 23]")
"< 6.00"
>>> experimental_value("Cn1cc(-c2cc(Oc3cc(F)c(NC(=O)N4CCN(C5CCOCC5)C4=O)cc3Cl)ccn2)cn1 [Example 92]")
"7.00 to 8.00"
>>> experimental_value("Cc1cn(-c2cc(Oc3ccc(NC(=O)N4CCN(C5CCOCC5)C4=O)nc3)ccn2)cn1 [Example 77]")
"7.00 to 8.00"
>>> experimental_value("Cn1cc(-c2cc(Oc3ccc(NC(=O)N4CCN(C5CCC(F)(F)CC5)C4=O)nc3)ccn2)cn1 [Example 25]")
"> 8.00"
>>> experimental_value("Cc1cn(-c2cc(Oc3ccc(NC(=O)N4CCN(CC(F)(F)F)C4=O)nc3)ccn2)cn1 [Example 76]")
"6.00 to 7.00"
>>> experimental_value("COC[C@H](C)N1CCN(C(=O)Nc2ccc(Oc3ccnc(-c4cnn(C)c4)c3)cn2)C1=O [Example 16]")
"> 8.00"
>>> experimental_value("CN1CCN(C(=O)Nc2ccc(Oc3ccnc(-c4cnn(C)c4)c3)cn2)C1=O [Example 44]")
"6.00 to 7.00"
>>> experimental_value("CCN1CCN(C(=O)Nc2ccc(Oc3ccnc(-c4ccc(N5CCN(C)CC5)cc4)c3)c(C)n2)C1=O [Example 68]")
"7.00 to 8.00"
>>> experimental_value("N#CCC(=O)Nc1cc(Oc2cc(F)c(NC(=O)N3CCN(C4CCOCC4)C3=O)cc2Cl)ccn1 [Example 114]")
"< 6.00"
>>> experimental_value("Cc1ncc(-c2cc(Oc3ccc(NC(=O)N4CCN(C5CCCC5)C4=O)nc3C)ccn2)s1 [Example 75]")
"6.00 to 7.00"
>>> experimental_value("COCCN1CCN(C(=O)Nc2ccc(Oc3ccnc(-c4cnn(C)c4)c3)c(C)n2)C1=O [Example 18]")
"6.00 to 7.00"
>>> experimental_value("COCCN1CCN(C(=O)Nc2ccc(Oc3ccnc(-c4cnc(C)s4)c3)cn2)C1=O [Example 62]")
"6.00 to 7.00"
>>> experimental_value("COCCN1CCN(C(=O)Nc2ccc(Oc3ccnc(-c4ccc(C5CCN(C)CC5)cc4)c3)c(C)n2)C1=O [Example 80]")
"6.00 to 7.00"
>>> experimental_value("Cc1cn(-c2cc(Oc3cnc(NC(=O)N4CCN(C)C4=O)cc3C)ccn2)cn1 [Example 89]")
"6.00 to 7.00"
>>> experimental_value("Cc1ncc(-c2cc(Oc3ccc(NC(=O)N4CCN(C)C4=O)nc3C)ccn2)s1 [Example 73]")
"< 6.00"
>>> experimental_value("CC(=O)Nc1cc(Oc2ccc(NC(=O)N3CCN(C4CCOCC4)C3=O)nc2)ccn1 [Example 119]")
"6.00 to 7.00"
>>> experimental_value("Cn1cc(-c2cc(Oc3ccc(NC(=O)N4CCN(C5CCOCC5)C4=O)c(F)c3Cl)ccn2)cn1 [Example 113]")
"7.00 to 8.00"
>>> experimental_value("Cn1cnc(-c2cc(Oc3ccc(NC(=O)N4CCN(CC(F)(F)F)C4=O)nc3)ccn2)c1 [Example 84]")
"7.00 to 8.00"
>>> experimental_value("Cc1ccc(-c2cc(Oc3ccc(NC(=O)N4CCN(CC(F)(F)F)C4=O)nc3C)ccn2)cn1 [Example 53]")
"< 6.00"
>>> experimental_value("Cn1cc(-c2cc(Oc3ccc(NC(=O)N4CCN(CC(F)(F)F)C4=O)nc3)ccn2)cn1 [Example 48]")
"> 8.00"
>>> experimental_value("Cn1cc(-c2cc(Oc3ccc(NC(=O)N4CC(C)(C)N(C5CCCCC5)C4=O)nc3)ccn2)cn1 [Example 31]")
"6.00 to 7.00"
>>> experimental_value("Cn1cc(-c2cc(Oc3cc(F)c(NC(=O)N4CCN(CC(O)C(C)(C)C)C4=O)cc3Cl)ccn2)cn1 (stereo not shown) [Example 112]")
"7.00 to 8.00"

* * *

Target: unphosphorylated c-KIT kinase (uKIT, Seq. ID no. 2) (Homo sapiens (Human), UniProt P10721)
Sequence (P10721 other isoform, or with tags, fused parts or gaps): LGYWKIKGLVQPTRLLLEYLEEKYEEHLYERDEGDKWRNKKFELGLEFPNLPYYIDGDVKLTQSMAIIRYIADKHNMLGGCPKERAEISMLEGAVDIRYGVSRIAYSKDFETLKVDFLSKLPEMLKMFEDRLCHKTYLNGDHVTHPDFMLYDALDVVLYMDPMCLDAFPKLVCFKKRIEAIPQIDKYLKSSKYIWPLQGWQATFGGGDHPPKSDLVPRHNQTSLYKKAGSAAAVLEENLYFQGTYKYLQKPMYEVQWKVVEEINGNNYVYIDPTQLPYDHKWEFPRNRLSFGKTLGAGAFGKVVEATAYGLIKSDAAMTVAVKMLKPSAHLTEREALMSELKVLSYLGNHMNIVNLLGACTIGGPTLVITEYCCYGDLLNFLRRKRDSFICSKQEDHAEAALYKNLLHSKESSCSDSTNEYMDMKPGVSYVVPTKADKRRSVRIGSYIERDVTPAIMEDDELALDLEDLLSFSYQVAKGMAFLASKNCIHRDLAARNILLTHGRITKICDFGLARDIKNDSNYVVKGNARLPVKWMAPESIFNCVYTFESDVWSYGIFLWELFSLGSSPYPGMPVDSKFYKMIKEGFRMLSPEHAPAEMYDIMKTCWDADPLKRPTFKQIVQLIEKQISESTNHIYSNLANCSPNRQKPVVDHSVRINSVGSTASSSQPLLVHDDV
Assay: uKit kinase assay (coupled pyruvate kinase/lactate dehydrogenase)
Type: biochemical
Settings: enzymatic assay, ATP 2000 μM
Readout name: IC50

>>> experimental_value("Cn1cc(-c2cc(Oc3ccc(NC(=O)N4CCN(C5CCCC5)C4=O)nc3)ccn2)cn1 [Example 30]")
"< 10 nM"
>>> experimental_value("CC(C)N1CCN(C(=O)Nc2ccc(Oc3ccnc(-c4cnn(C)c4)c3)cn2)C1=O [Example 36]")
"10 to 100 nM"
>>> experimental_value("CCN1CCN(C(=O)Nc2ccc(Oc3ccnc(C(=O)NC)c3)cn2)C1=O [Example 115]")
"100 to 1000 nM"
>>> experimental_value("[2H]C([2H])([2H])n1cc(-c2cc(Oc3ccc(NC(=O)N4CCN([C@@H]5CCOC5)C4=O)nc3C)ccn2)cn1 [Example 37]")
"100 to 1000 nM"

* * *

Molecular target: unphosphorylated c-FMS kinase (uFMS, Seq. ID no. 1) (Homo sapiens (Human), UniProt P07333)
Sequence (P07333 538-972): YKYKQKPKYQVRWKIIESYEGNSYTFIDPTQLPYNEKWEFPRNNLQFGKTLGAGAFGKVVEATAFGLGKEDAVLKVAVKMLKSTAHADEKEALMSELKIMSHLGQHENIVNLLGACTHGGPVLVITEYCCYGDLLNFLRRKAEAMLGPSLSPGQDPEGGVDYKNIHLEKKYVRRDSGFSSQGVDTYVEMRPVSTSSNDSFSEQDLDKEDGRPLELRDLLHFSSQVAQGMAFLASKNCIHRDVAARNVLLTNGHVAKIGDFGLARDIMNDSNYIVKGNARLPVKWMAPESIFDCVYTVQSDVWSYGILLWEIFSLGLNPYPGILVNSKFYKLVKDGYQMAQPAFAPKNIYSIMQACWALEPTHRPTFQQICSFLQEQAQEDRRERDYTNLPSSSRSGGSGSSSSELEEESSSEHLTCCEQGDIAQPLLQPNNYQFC
Assay: uFMS kinase assay (ADP production coupled to pyruvate kinase/lactate dehydrogenase)
Format: biochemical
Settings: enzymatic assay, ATP 500 μM; read-out: uFMS
pIC50: −log10 of the molar value.
Readout name: pIC50

>>> experimental_value("CCN1CCN(C(=O)Nc2ccc(Oc3ccnc(-c4ccc(N5CCN(C)CC5)cc4)c3)c(C)n2)C1=O [Example 68]")
"> 8.00"
>>> experimental_value("COCCN1CCN(C(=O)Nc2ccc(Oc3ccnc(-c4cnn(C)c4)c3)c(C)n2)C1=O [Example 18]")
"7.00 to 8.00"
>>> experimental_value("CCc1nc(NC(=O)N2CCN(C3CCOCC3)C2=O)ccc1Oc1ccnc(-c2ccnc(C)c2)c1 [Example 64]")
"6.00 to 7.00"
>>> experimental_value("COCCCN1CCN(C(=O)Nc2ccc(Oc3ccnc(-c4cnn(C)c4)c3)c(C)n2)C1=O [Example 19]")
"7.00 to 8.00"
>>> experimental_value("Cc1nc(NC(=O)N2CCN(C(C)C)C2=O)ccc1Oc1ccnc(-c2cnn(C)c2)c1 [Example 35]")
"> 8.00"
>>> experimental_value("CN1CCN(C(=O)Nc2ccc(Oc3ccnc(-c4cnn(C)c4)c3)cn2)C1=O [Example 44]")
"7.00 to 8.00"
>>> experimental_value("Cn1cc(-c2cc(Oc3ccc(NC(=O)N4CCN(CC(F)(F)F)C4=O)nc3)ccn2)cn1 [Example 48]")
"> 8.00"
>>> experimental_value("CC(=O)Nc1cc(Oc2ccc(NC(=O)N3CCN(C4CCOCC4)C3=O)nc2C)ccn1 [Example 121]")
"7.00 to 8.00"
>>> experimental_value("COC[C@H](C)N1CCN(C(=O)Nc2cc(Cl)c(Oc3ccnc(-c4cnn(C)c4)c3)cc2F)C1=O [Example 105]")
"7.00 to 8.00"
>>> experimental_value("Cn1cc(-c2cc(Oc3ccc(NC(=O)N4CCN(C5CCCCC5)C4=O)nc3)ccn2)cn1 [Example 15]")
"> 8.00"
>>> experimental_value("CCN1CCN(C(=O)Nc2ccc(Oc3ccnc(-n4cnc(C)c4)c3)cn2)C1=O [Example 79]")
"6.00 to 7.00"
>>> experimental_value("Cn1cc(-c2cc(Oc3cc(F)c(NC(=O)N4CCN(C5CCOCC5)C4=O)cc3Br)ccn2)cn1 [Example 109]")
"7.00 to 8.00"
>>> experimental_value("COCCN1CCN(C(=O)Nc2ccc(Oc3ccnc(-c4cn(C)cn4)c3)c(C)n2)C1=O [Example 81]")
"7.00 to 8.00"
>>> experimental_value("Cn1cc(-c2cc(Oc3ccc(NC(=O)N4CCN(C5CCOCC5)C4=O)nc3)ccn2)cn1 [Example 1]")
"> 8.00"
>>> experimental_value("CCN1CCN(C(=O)Nc2ccc(Oc3ccnc(-c4ccnc(C)c4)c3)c(C)n2)C1=O [Example 118]")
"7.00 to 8.00"
>>> experimental_value("Cn1cc(-c2cc(Oc3cc(F)c(NC(=O)N4CCN(C5CCCC5)C4=O)cc3Cl)ccn2)cn1 [Example 111]")
"> 8.00"
